Target sequence: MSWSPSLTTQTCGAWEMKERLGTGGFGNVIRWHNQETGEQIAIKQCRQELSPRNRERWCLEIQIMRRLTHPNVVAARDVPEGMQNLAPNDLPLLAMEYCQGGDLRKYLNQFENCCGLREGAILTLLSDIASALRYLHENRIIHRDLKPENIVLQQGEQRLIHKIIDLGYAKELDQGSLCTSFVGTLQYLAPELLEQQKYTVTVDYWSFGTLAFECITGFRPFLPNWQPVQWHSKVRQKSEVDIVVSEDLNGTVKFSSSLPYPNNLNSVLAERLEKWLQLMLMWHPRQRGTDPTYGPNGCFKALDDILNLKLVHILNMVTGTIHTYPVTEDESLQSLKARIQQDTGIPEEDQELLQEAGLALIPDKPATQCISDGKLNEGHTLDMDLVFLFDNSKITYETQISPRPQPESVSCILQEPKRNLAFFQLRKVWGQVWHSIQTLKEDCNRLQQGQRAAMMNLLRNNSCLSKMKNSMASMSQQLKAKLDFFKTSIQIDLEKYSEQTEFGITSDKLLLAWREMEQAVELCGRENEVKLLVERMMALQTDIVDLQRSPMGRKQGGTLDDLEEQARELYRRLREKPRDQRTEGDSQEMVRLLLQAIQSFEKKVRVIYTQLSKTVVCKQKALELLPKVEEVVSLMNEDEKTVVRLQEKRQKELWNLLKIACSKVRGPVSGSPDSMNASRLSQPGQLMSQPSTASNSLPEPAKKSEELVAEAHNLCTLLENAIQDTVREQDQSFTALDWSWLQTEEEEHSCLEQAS
measured_property: Kd
Hey, just the number and the unit after it is fine.

Return Kd (reported value) for this molecule: CC(C)C1=CC2=CC[C@@H]3[C@](C)(CCC[C@@]3(C)C(=O)O)[C@H]2CC1
32 µM
